test: The drug is tested on WLS-240 corresponding to human gut metagenome with ENA study accession number: PRJEB37062 and ENA sample accession number: ERS12561773 for biotransformation under anaerobic condition. The drug concentrations were measured over 9 timepoints collected between 0 and 24 hours of incubation by liquid-chromatography-coupled mass spectrometry (LC–MS); settings: 2 µM; further: call rule not given here
reported endpoint: Bacterial Biotransformation

compound	measured result
O=C([O-])C[C@H](O)C[C@H](O)/C=C/c1c(C2CC2)nc2ccccc2c1-c1ccc(F)cc1.O=C([O-])C[C@H](O)C[C@H](O)/C=C/c1c(C2CC2)nc2ccccc2c1-c1ccc(F)cc1.[Ca+2]	Compound metabolized
CC(C)C[C@H]1C(=O)N2CCC[C@H]2[C@]2(O)O[C@](NC(=O)[C@@H]3C=C4c5cccc6[nH]c(Br)c(c56)C[C@H]4N(C)C3)(C(C)C)C(=O)N12.CS(=O)(=O)O [BROMOCRIPTINE MESYLATE]	Compound NOT metabolized
CCN(C)C(=O)Oc1cccc([C@H](C)N(C)C)c1.O=C(O)C(O)C(O)C(=O)O [RIVASTIGMINE TARTRATE]	Compound metabolized
CN(C)CCOC(C)(c1ccccc1)c1ccccn1.O=C(O)CCC(=O)O (stereo not given) [DOXYLAMINE SUCCINATE]	Compound NOT metabolized
C=CC[C@@H]1/C=C(\C)C[C@H](C)C[C@H](OC)[C@H]2O[C@@](O)(C(=O)C(=O)N3CCCC[C@H]3C(=O)O[C@H](/C(C)=C/[C@@H]3CC[C@@H](O)[C@H](OC)C3)[C@H](C)[C@@H](O)CC1=O)[C@H](C)C[C@@H]2OC.O	Compound metabolized

* * *

assay: The drug is tested on Z-001 corresponding to mouse gut metagenome with ENA study accession number: PRJEB37062 and ENA sample accession number: ERS12561801 for biotransformation under anaerobic condition. The drug concentrations were measured over 9 timepoints collected between 0 and 24 hours of incubation by liquid-chromatography-coupled mass spectrometry (LC–MS); conditions: 2 µM
reported endpoint: Bacterial Biotransformation

> print(dat)
                                   compound           measured.result
1         CCN(CC)CCOC(=O)C1(C2CCCCC2)CCCCC1  Compound NOT metabolized
2  COc1ccc2c(c1)c(CC(=O)O)c(C)n2C(=O)c1ccc(Cl)cc1  Compound NOT metabolized
3  CCOc1ccccc1OCCN[C@H](C)Cc1ccc(OC)c(S(N)(=O)=O)c1.Cl [TAMSULOSIN HYDROCHLORIDE]  Compound NOT metabolized

* * *

conditions: human gut metagenome, 24 h, 2 µM
reported endpoint: Bacterial Biotransformation

> print(dat)
                                   compound           measured.result
1  CN1CCN(C2=Nc3ccccc3Oc3ccc(Cl)cc32)CC1.O=C(O)CCC(=O)O [LOXAPINE SUCCINATE]  Compound NOT metabolized
2                 CNNCc1ccc(C(=O)NC(C)C)cc1  Compound NOT metabolized
3  CCOc1cc(CC(=O)N[C@@H](CC(C)C)c2ccccc2N2CCCCC2)ccc1C(=O)O [REPAGLINIDE]      Compound metabolized
4  CCN1CCCC1CNC(=O)c1cc(S(=O)(=O)CC)c(N)cc1OC (centres undefined) [AMISULPRIDE]  Compound NOT metabolized
5  CC(C)NCC(O)COc1ccc(CC(N)=O)cc1 (centres undefined)  Compound NOT metabolized
6  CC(C)(C)NC(=O)[C@H]1CC[C@H]2[C@@H]3CC[C@H]4NC(=O)C=C[C@]4(C)[C@H]3CC[C@]12C [FINASTERIDE]      Compound metabolized
7  OC(c1cc(C(F)(F)F)nc2c(C(F)(F)F)cccc12)C1CCCCN1 (centres undefined)      Compound metabolized
8  CC(C)(C)NC[C@H](O)COc1nsnc1N1CCOCC1.O=C(O)/C=C\C(=O)O [TIMOLOL MALEATE]  Compound NOT metabolized
9      CN(C/C=C/C#CC(C)(C)C)Cc1cccc2ccccc12  Compound NOT metabolized

* * *

assay: The drug is tested on Z-004 corresponding to metagenome with ENA study accession number: PRJEB37062 and ENA sample accession number: ERS12561804 for biotransformation under anaerobic condition. The drug concentrations were measured over 9 timepoints collected between 0 and 24 hours of incubation by liquid-chromatography-coupled mass spectrometry (LC–MS); settings: 2 µM
reported endpoint: Bacterial Biotransformation

> print(dat)
                                   compound           measured.result
1  c1ccc2[nH]c(-c3cscn3)nc2c1 [THIABENDAZOLE]  Compound NOT metabolized
2  C#C[C@]1(OC(C)=O)CC[C@H]2[C@@H]3CCC4=C[C@@H](OC(C)=O)CC[C@@H]4[C@H]3CC[C@@]21C [ETHYNODIOL DIACETATE]      Compound metabolized
3  CC(C)(C)NC[C@H](O)COc1nsnc1N1CCOCC1.O=C(O)/C=C\C(=O)O [TIMOLOL MALEATE]  Compound NOT metabolized
4  CC(=O)O[C@]1(C(C)=O)CC[C@H]2[C@@H]3C=C(C)C4=CC(=O)CC[C@]4(C)[C@H]3CC[C@@]21C [MEGESTROL ACETATE]      Compound metabolized

* * *

conditions: human gut metagenome, 24 h, 2 µM
reported endpoint: Bacterial Biotransformation

compound	measured result
CCN(CC)CCNC(=O)c1cc(S(C)(=O)=O)ccc1OC [TIAPRIDE]	Compound NOT metabolized
C[C@]12CCC(=O)C=C1[C@@H]1C[C@@H]1[C@H]1[C@@H]3[C@@H]4C[C@@H]4[C@@]4(CCC(=O)O4)[C@@]3(C)CC[C@@H]12	Compound metabolized
COc1ccccc1OCCNCC(O)COc1cccc2[nH]c3ccccc3c12 (stereo not drawn)	Compound metabolized
COCCCC/C(=N\OCCN)c1ccc(C(F)(F)F)cc1.O=C(O)/C=C\C(=O)O [FLUVOXAMINE MALEATE]	Compound metabolized
CNNCc1ccc(C(=O)NC(C)C)cc1	Compound metabolized
CN1CCC(OC(c2ccccc2)c2ccccc2)CC1	Compound NOT metabolized
O=C([O-])C[C@H](O)C[C@H](O)/C=C/c1c(C2CC2)nc2ccccc2c1-c1ccc(F)cc1.O=C([O-])C[C@H](O)C[C@H](O)/C=C/c1c(C2CC2)nc2ccccc2c1-c1ccc(F)cc1.[Ca+2]	Compound NOT metabolized
COc1cc2nc(N3CCN(C(=O)C4CCCO4)CC3)nc(N)c2cc1OC (stereo not drawn)	Compound metabolized

* * *

settings: human gut metagenome, 24 h, 2 µM
reported endpoint: Bacterial Biotransformation

> print(dat)
                                    compound           measured.result
 1    CC(=O)Nc1ccc(OC(C)=O)cc1 [DIACETAMATE]      Compound metabolized
 2  CC(C)NCC(O)COc1ccc(CC(N)=O)cc1 (stereo not given) [ATENOLOL]  Compound NOT metabolized
 3  CC(C)c1c(CN(C)C(C)Cc2ccccc2)n(C)n(-c2ccccc2)c1=O (stereo not given) [FAMPROFAZONE]      Compound metabolized
 4  CN(C)CCc1c[nH]c2ccc(CS(=O)(=O)N3CCCC3)cc12 [ALMOTRIPTAN]  Compound NOT metabolized
 5           CN1CCC(OC(c2ccccc2)c2ccccc2)CC1      Compound metabolized
 6  COc1cc(NC(C)CCCN)c2ncccc2c1.O=P(O)(O)O.O=P(O)(O)O (stereo not given) [PRIMAQUINE PHOSPHATE]  Compound NOT metabolized
 7  CN(C)CCOC(c1ccc(Cl)cc1)c1ccccn1.O=C(O)/C=C\C(=O)O (stereo not given) [CARBINOXAMINE MALEATE]  Compound NOT metabolized
 8  CC(C)(C)N.CCC[C@H](N[C@@H](C)C(=O)N1[C@H](C(=O)O)C[C@@H]2CCCC[C@@H]21)C(=O)OCC [PERINDOPRIL ERBUMINE]      Compound metabolized
 9  COCCCC/C(=N\OCCN)c1ccc(C(F)(F)F)cc1.O=C(O)/C=C\C(=O)O [FLUVOXAMINE MALEATE]      Compound metabolized
10  CCS(=O)(=O)CCn1c([N+](=O)[O-])cnc1C [TINIDAZOLE]      Compound metabolized
11  CN1[C@@H]2CC[C@H]1C[C@@H](OC(=O)[C@H](CO)c1ccccc1)C2 [HYOSCYAMINE]  Compound NOT metabolized
12  C#C[C@]1(OC(C)=O)CC[C@H]2[C@@H]3CCC4=CC(=O)CC[C@@H]4[C@H]3CC[C@@]21C [NORETHINDRONE ACETATE]      Compound metabolized
13  CN[C@H]1CC[C@@H](c2ccc(Cl)c(Cl)c2)c2ccccc21 [SERTRALINE]      Compound metabolized
14  CC(=O)CCCCn1c(=O)c2c(ncn2C)n(C)c1=O [PENTOXIFYLLINE]  Compound NOT metabolized
15  N#Cc1ccc2c(c1)N(CCCN1CCC(O)CC1)c1ccccc1S2 [PERICIAZINE]      Compound metabolized

Data provenance: ChEMBL document CHEMBL5724914
